Data provenance is ChEMBL document CHEMBL1201862.

# Tested on: Hs-578T
# EXPERIMENT: NCI tumour cell line growth inhibition, 48 h
Activity calls are given as the source filed them. Rule as the data show it: active = GI50 up to about 1.1 µM and inactive = higher.
RECORDED METRIC: GI50

[[record]]
compound = "CCCC(=O)OCC1OC(n2cc(F)c(=O)[nH]c2=O)CC1O (stereo not given)"
recorded_metric = "GI50"
result = "3.85 µM (inactive)"

[[record]]
compound = "CC1=NN(C(=O)CC(=O)Nc2cccc(Cl)c2)C(=O)C1/N=N/c1ccc(C(=O)O)cc1 (stereo not given)"
recorded_metric = "GI50"
result = "> 100 µM (inactive)"

[[record]]
compound = "COC(=O)C1=C(C(=O)OC)SC2(S1)C1=C(CCCC1)SC(C(=O)OC)=C2C(=O)OC"
recorded_metric = "GI50"
result = "15.9 µM (inactive)"

[[record]]
compound = "COC(=O)c1c(OC(C)=O)ccc2c1c1c(n2C)C(=O)c2ccccc2C1=O"
recorded_metric = "GI50"
result = "8.38 µM (inactive)"

[[record]]
compound = "Cc1cc(C)c(S(=O)(=O)N(CCCCCCN)OCCCON(CCCCCCN)S(=O)(=O)c2c(C)cc(C)cc2C)c(C)c1"
recorded_metric = "GI50"
result = "2.11 µM (inactive)"

[[record]]
compound = "Cc1cc(C[C@H]2O[C@@H]3OC(C)(C)O[C@@H]3[C@H]3OC(C)(C)O[C@H]32)c2ccccc2n1"
recorded_metric = "GI50"
result = "26.4 µM (inactive)"

[[record]]
compound = "COc1cc(OCc2ccc3nc(-c4ccccc4)c(N)nc3c2)cc(OC)c1OC"
recorded_metric = "GI50"
result = "21.2 µM (inactive)"

[[record]]
compound = "CC(C)(C)OC(=O)N1CCCC1=O"
recorded_metric = "GI50"
result = "> 10 µM (inactive)"

[[record]]
compound = "COC1(OC)c2occc2C(=N)c2ccc(=O)oc21"
recorded_metric = "GI50"
result = "> 100 µM (inactive)"

[[record]]
compound = "CCC[C@H]1C(=O)N=C(N)N1C(=O)OCc1ccccc1"
recorded_metric = "GI50"
result = "> 100 µM (inactive)"


----------
# System: MOLT-4
# EXPERIMENT: NCI tumour cell line growth inhibition, 48 h
Active and inactive are the calls of the source. Cut-off read from the data, not from the text of the source: active = GI50 up to about 1.1 µM and inactive = higher.
Labels: Y for active, N for inactive

[[record]]
compound = "CC(=O)OCC1OC(N2C(=O)NC(=O)C3C=C4CCCCC4=CC32)CC1OC(C)=O (stereo unspecified)"
category = "N"

[[record]]
compound = "O=c1[nH]c(=O)n([C@@H]2C[C@H](CO)[C@H](O)C2)cc1/C=C/Br"
category = "N"

[[record]]
compound = "COC(=O)[C@@H]1COC(C(C)(C)C)N1C(=O)C(c1ccccc1)c1ccccc1 (stereo partly specified)"
category = "N"

[[record]]
compound = "Nc1ncnc2c1ncn2C1OC(CO)=CC1O (stereo unspecified)"
category = "N"

[[record]]
compound = "N#CC(c1ccccc1)c1cccc2ccccc12 (stereo unspecified)"
category = "N"

[[record]]
compound = "c1csc(-c2nccc3c2[nH]c2ccccc23)c1"
category = "N"

[[record]]
compound = "Cc1ccc(CNNC(=O)c2cc[n+]([BH2-]C#N)cc2)cc1"
category = "N"

[[record]]
compound = "NC(=O)C(=O)N/N=C1\\C(=O)N(c2ccc(Cl)cc2Cl)C(=O)C1C(=O)Nc1ccc(Cl)cc1Cl (stereo unspecified)"
category = "N"

[[record]]
compound = "COc1cc2c3c(n(Cc4ccccc4)c(=O)c2cc1OC)-c1ccccc1C3=O"
category = "N"

[[record]]
compound = "O=C(Nn1c(-c2ccccc2)nc2ccccc2c1=O)c1ccccn1"
category = "N"

[[record]]
compound = "c1ccc2sc(SCSc3nc4ccccc4s3)nc2c1"
category = "N"

[[record]]
compound = "CC1=CC(C)C(C)N(CCNS(=O)(=O)c2ccc(C)cc2)c2ccccc21 (stereo unspecified)"
category = "N"

[[record]]
compound = "COc1cccc(OC)c1/C=C1\\OC(=O)c2cccc(OC)c21"
category = "N"

[[record]]
compound = "O=[N+]([O-])c1ccc(NC(=S)N/N=C(\\c2ccccc2)c2ccccn2)cc1"
category = "Y"

[[record]]
compound = "C=C1C(=O)O[C@H]2[C@H]3O[C@@H](C[C@@H]12)[C@@]1(C)CC[C@H](O1)[C@H](C)CCC[C@H]3C"
category = "N"

[[record]]
compound = "CC(C)OC(=O)C1Cc2c([nH]c3ccccc23)C(c2ccccc2)N1 (stereo unspecified)"
category = "N"

[[record]]
compound = "O=C1Nc2cccc3cc(NCC(O)CCl)cc1c23 (stereo unspecified)"
category = "N"

[[record]]
compound = "C=CCOC1OC(CS(=O)(=O)O)C(OC(C)=O)C(OC(C)=O)C1OC(C)=O (stereo unspecified)"
category = "N"

[[record]]
compound = "c1ccc2c(c1)nc1ccccn12"
category = "N"

[[record]]
compound = "CC(=O)OC1[C@H](n2ccnc2)C[C@H]2[C@@H]3CC=C4CC(N5CCCC5)CC[C@]4(C)[C@H]3CC[C@]12C (stereo partly specified)"
category = "N"

[[record]]
compound = "C=C(C)C1CC=C(C(=O)O)CC1 (stereo unspecified)"
category = "N"

